From: ChEMBL document CHEMBL1130880

The following compounds are listed with their measured log10 IC50 values.
Tested on: Caov-3 cell line
Protocol summary: Compound was evaluated for in vitro antiproliferative activity against CAOV-3 human ovarian cancer cell line
Format: functional, cell-based
Log scale reminder: IC50 in nM, then log10 taken.

| Compound | log10 IC50 |
| --- | --- |
| CCOCOCCC1(O)C(=O)OCc2c1cc1n(c2=O)Cc2c-1nc1cc3c(cc1c2CCl)OCCO3 (stereo not given) | 3.58 |
| COCOCCC1(O)C(=O)OCc2c1cc1n(c2=O)Cc2cc3ccccc3nc2-1 (stereo not given) | 2.75 |
| CC(C)NCCc1c2c(nc3ccccc13)-c1cc3c(c(=O)n1C2)COC(=O)C3(O)CCO (stereo not given) | 2.68 |
| COCOCCC1(O)C(=O)OCc2c1cc1n(c2=O)Cc2c-1nc1cc3c(cc1c2CCl)OCCO3 (stereo not given) | 0.48 |
| O=C1OCc2c(cc3n(c2=O)Cc2c-3nc3cc4c(cc3c2CCl)OCCO4)C1(O)CCO (stereo not given) | 1.00 |

Provide value of log10 IC50 for this record tested with Caov-3 cell line: CCOCOCCC1(O)C(=O)OCc2c1cc1n(c2=O)Cc2c-1nc1ccccc1c2CCNC(C)C (stereo not given)
1.38

Provide value of log10 IC50 for this record tested with Caov-3 cell line: CCC1(O)C(=O)OCc2c1cc1n(c2=O)Cc2c-1nc1cc3c(cc1c2CCl)OCCO3 (stereo not given)
1.94

Provide value of log10 IC50 for this record tested with Caov-3 cell line: CCC1(O)C(=O)OCc2c1cc1n(c2=O)Cc2cc3ccccc3nc2-1 (stereo not given)
1.51

Provide value of log10 IC50 for this record tested with Caov-3 cell line: COCOCCC1(O)C(=O)OCc2c1cc1n(c2=O)Cc2c-1nc1ccccc1c2CCNC(C)C (stereo not given)
1.96

Provide value of log10 IC50 for this record tested with Caov-3 cell line: CCC1(O)C(=O)OCc2c1cc1n(c2=O)Cc2c-1nc1ccccc1c2CCNC(C)C (stereo not given)
0.60

----------
System: DLD-1
Protocol summary: Compound was evaluated for in vitro antiproliferative activity against DLD-1 human colon cancer cell line
Assay type: functional, cell-based
The following compounds are listed with their measured pIC50 values.
// pIC50 here means minus log10 of the molar concentration (mol/L)

| Compound | Property name | Observed measurement |
| --- | --- | --- |
| CCOCOCCC1(O)C(=O)OCc2c1cc1n(c2=O)Cc2c-1nc1cc3c(cc1c2CCl)OCCO3 (stereo not given) | pIC50 | 5.41 |
| CCOCOCCC1(O)C(=O)OCc2c1cc1n(c2=O)Cc2c-1nc1ccccc1c2CCNC(C)C (stereo not given) | pIC50 | 5.68 |
| CCC1(O)C(=O)OCc2c1cc1n(c2=O)Cc2cc3ccccc3nc2-1 (stereo not given) | pIC50 | 6.99 |
| O=C1OCc2c(cc3n(c2=O)Cc2c-3nc3cc4c(cc3c2CCl)OCCO4)C1(O)CCO (stereo not given) | pIC50 | 7.26 |
| CCC1(O)C(=O)OCc2c1cc1n(c2=O)Cc2c-1nc1ccccc1c2CCNC(C)C (stereo not given) | pIC50 | 6.56 |

Given the compound COCOCCC1(O)C(=O)OCc2c1cc1n(c2=O)Cc2cc3ccccc3nc2-1 (stereo not given) , what is its reported pIC50?
5.73
